system: DU-145; assay: NCI tumour cell line growth inhibition, 48 h
Activity calls are given as the source filed them. Cut-off read from the data, not from the text of the source: active = GI50 up to about 1.1 µM and inactive = higher.
Labels: 1 = active, 0 = inactive

molecule=CC(=O)/C=C/C=C(\C)CC/C=C(\C)CC(C)C targetofassay=DU-145 grouplabel=0
molecule=Cc1ccc(S(=O)(=O)Oc2cc(S(=O)(=O)O)cc3cc(S(=O)(=O)O)cc(N)c23)cc1 targetofassay=DU-145 grouplabel=0
molecule=CC1(C)O[C@@H]([C@H](O)CO)[C@H](O)[C@@H](C2SCCCS2)O1 targetofassay=DU-145 grouplabel=0
molecule=Cc1ccc(C(=O)N/N=C(\N=N\c2ccccc2C(=O)O)c2ccc(N(C)C)cc2)cc1 targetofassay=DU-145 grouplabel=0
molecule=N#Cc1nc(/C=C/c2ccccc2)oc1N targetofassay=DU-145 grouplabel=0
molecule="Nc1ccc2[nH]c(C(=O)N3CC(CCl)c4c3cc(N)c3ccccc43)cc2c1 (stereo not given)" targetofassay=DU-145 grouplabel=1
molecule=Cc1ccc(/N=N\c2c(O)c(S(=O)(=O)O)cc3cc(S(=O)(=O)O)ccc23)c(C)c1 targetofassay=DU-145 grouplabel=0
molecule=Cc1cnc(/C=N\NC(N)=S)c2cccc(N)c12 targetofassay=DU-145 grouplabel=1
molecule=O=C1N/C(=N/N=C/c2c[nH]c3ccccc23)N/C1=C\c1c[nH]c2ccccc12 targetofassay=DU-145 grouplabel=0
molecule="COc1ccc(N2C(=O)C3c4[nH]c5ccccc5c4C4CCC(c5ccccc5)CC4C3C2=O)cc1 (stereo not given)" targetofassay=DU-145 grouplabel=0
